I'd appreciate it if you could supply Trimeric HA Binding: RLU values for the items below.
- Tgt: recombinant soluble homotrimeric HA of A/Japan/305/57 (H2N2) (Influenza A virus A/Japan/305/1957(H2N2))
- Assay method text: trimeric HA microarray, transfection supernatant set 2
- Settings: remark: other sources report otherwise
Quick reminder: number only, in RLU, skip the unit.

Exercise: Could you tell me which Trimeric HA Binding: RLU is on file for TCN-523 (5248_A17) (antibody, V domains shown) VH: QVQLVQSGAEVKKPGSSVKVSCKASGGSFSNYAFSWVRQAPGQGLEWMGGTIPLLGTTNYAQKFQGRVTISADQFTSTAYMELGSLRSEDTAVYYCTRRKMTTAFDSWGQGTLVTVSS VL: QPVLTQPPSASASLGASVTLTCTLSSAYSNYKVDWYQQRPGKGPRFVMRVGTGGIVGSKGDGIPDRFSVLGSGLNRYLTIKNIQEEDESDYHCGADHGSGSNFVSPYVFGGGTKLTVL ?
Key: 882

Exercise: Again, but for TCN-504 (3251_K17) (antibody, V domains shown) VH: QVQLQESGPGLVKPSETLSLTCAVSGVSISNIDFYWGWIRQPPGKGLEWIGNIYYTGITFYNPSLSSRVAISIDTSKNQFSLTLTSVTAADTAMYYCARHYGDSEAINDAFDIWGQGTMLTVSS VL: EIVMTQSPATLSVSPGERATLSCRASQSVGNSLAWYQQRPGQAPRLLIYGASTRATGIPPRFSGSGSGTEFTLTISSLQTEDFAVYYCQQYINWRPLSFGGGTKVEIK
Key: 22600

Exercise: Again, but for TCN-528 (5087_P17) (antibody, V domains shown) VH: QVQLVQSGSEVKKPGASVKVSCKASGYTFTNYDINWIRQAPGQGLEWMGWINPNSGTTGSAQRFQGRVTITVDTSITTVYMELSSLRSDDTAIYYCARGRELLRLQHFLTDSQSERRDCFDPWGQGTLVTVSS VL: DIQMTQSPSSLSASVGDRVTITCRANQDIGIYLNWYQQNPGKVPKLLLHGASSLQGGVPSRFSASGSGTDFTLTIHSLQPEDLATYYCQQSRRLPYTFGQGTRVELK
Key: 23100

Exercise: Again, but for TCN-527 (5086_C06) (antibody, V domains shown) VH: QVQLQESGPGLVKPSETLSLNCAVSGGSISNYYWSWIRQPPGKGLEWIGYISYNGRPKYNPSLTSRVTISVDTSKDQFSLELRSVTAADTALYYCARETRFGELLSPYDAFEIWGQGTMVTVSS VL: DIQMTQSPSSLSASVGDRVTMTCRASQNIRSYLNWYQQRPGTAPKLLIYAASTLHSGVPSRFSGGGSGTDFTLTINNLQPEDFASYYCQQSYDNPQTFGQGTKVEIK
Key: 20800
